Reference source for all entries: PubChem BioAssay (NCI)

Overview of reported growth inhibition across a group of compounds:
Experiment: NCI Yeast Anticancer Drug Screen. Data for the rad50 strain (AID 155);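 note: 0% = growth of vehicle-only cultures of the same strain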
Conditions: S. cerevisiae rad50 strain growth inhibition; at 50.0 µM; hits give high values
This is part of a sample that, as a whole, favours compounds with a hit. Of some 79,000 tested, about 15% had one in any assay. Calls of active or inactive are those of the source. Cut-off read from the data, not from the text of the source: active = growth inhibition above about 70%; inactive = the rest.

compound: O=C1OC(c2ccc3c(c2)OCO3)Sc2ccccc21 (configuration not stated)
growth inhibition: 30.1% (inactive)

compound: CCCN1CSC(=S)N(CCC)C1
growth inhibition: 52.5% (inactive)

compound: COC(=O)c1nnn(-c2ccc(Cl)cc2Cl)c1C(=O)c1ccc(Cl)c(Cl)c1
growth inhibition: 98.3% (active)

compound: N#CC1Sc2ccccc2N1C(=O)Oc1ccccc1 (configuration not stated)
growth inhibition: 98.8% (active)

compound: Clc1ccnc2c1ccc1c(Cl)ccnc12
growth inhibition: 43.6% (inactive)

I have this compound here, O=C1C(c2ccccc2)=[N+]([O-])c2cc([N+](=O)[O-])c(/C(Cl)=C/c3ccccc3)cc21 , and I need its recorded growth inhibition.
54.8% (inactive)

Which growth inhibition is reported for this compound? CCCCCCCC/C=C\CCCCCCCC(=O)NCCN(C)C
99.3% (active)

Tell me the measured growth inhibition of O=Cc1ccc(O)cc1O , please.
58.5% (inactive)
